# Test system: HT29 colon
# method.notes: NCI tumour cell line growth inhibition, 48 h; in the data active = GI50 below about 0.43 µM; inactive = the rest
Outcome codes: T = active, F = inactive

> print(dat)
                                smiles.text  answer.label
1           Brc1ccc2c(c1)-c1ccccc1C1=NCCN12             F
2  OCCn1c(-c2ccncc2)c(-c2ccc(F)cc2)c2ncccc21             F
3  COc1cc2c(cc1OCCCN1CCN(CCCn3c4ccccc4c4ccccc43)CC1)N=C[C@@H]1CCCN1C2=O             T
4         c1csc(-c2[nH]nc3c2CCc2ccccc2-3)c1             F
5  Oc1ccc(/C=N/Nc2nnc(N/N=C/c3ccc(O)cc3O)c3ccccc23)c(O)c1             F
6       O=C1C(=O)c2c(ccc3ccccc23)-c2ccccc21             F

---

# System: HCC-2998 colon
# method.notes: NCI tumour cell line growth inhibition, 48 h
Each item that follows carries a reported TGI.

molecule	display.unit	relation.symbol	TGI
Cc1cccc(Cc2cnc(NC(=O)CCCOc3ccc(Cl)cc3)s2)c1	µM	>	100
O=C1COc2cc3c(cc2N1)SCC(=O)N3	µM	>	100
CC(C)(C)OC(=O)NCCCCC1NC(=O)[C@@H]2Cc3c([nH]c4ccccc34)C(c3ccccc3)N2C1=O (some centres not stated)	µM	=	40.3
O=C(Cn1c(-c2ccccc2)cc2ccccc21)N1CCOCC1	µM	>	100
CCOC(=O)c1c(/C=N\Nc2ccccc2)nc2ccccc2c1-c1ccccc1	µM	=	77
CC(=O)Oc1c(OC(C)C)cc(=O)n2ccsc12	µM	>	100
C/C(=N\NC(=O)c1ccncc1)c1ccccc1O	µM	=	68.7
Cc1c(N)nc(C2CC(=O)N2CC(N)C(N)=O)nc1C(=O)NC(C(=O)NC(C)C(O)C(C)C(=O)NC(C(=O)NCCc1nc(-c2nc(C(=O)NCCNCC(C)O)cs2)cs1)C(C)O)C(OC1OC(CO)C(O)C(O)C1OC1OC(CO)C(O)C(OC(N)=O)C1O)c1cnc[nH]1 (configuration not stated)	µM	>	100
O=c1cccccc1[O-].O=c1cccccc1[O-].O=c1cccccc1[O-].[Dy+3]	µM	>	100
CC(=O)Nc1ccc(C(=O)COc2cccc(/C=C3\CCc4ccccc4C3=O)c2)cc1	µM	=	32.2
CC(=O)CC(=O)N1CCOC1=O	µM	>	10
CCCNc1ncnc2c1cnn2C	µM	>	100
CCOC(=O)C(NC(=O)c1cccc(Cl)c1)(N1CCN(c2cc3c(cc2F)c(=O)c(C(=O)O)cn3CC)CC1)C(F)(F)F (configuration not stated)	µM	=	27.5
COC(=O)C1=C(C)N(NC(=O)Nc2ccccc2)C2(N)N(NC(=O)Nc3ccccc3)C(C)=C(C(=O)OC)C12C(=O)OC (configuration not stated)	µM	>	100
NS(=O)(=O)c1cc2c(cc1Cl)NC(C(=O)NNC(=O)c1ccncc1)=NS2(=O)=O	µM	>	100
CN1C/C(=C\c2ccco2)c2nc(N)nc(-c3ccco3)c2C1	µM	>	100
O=[N+]([O-])c1cccc2c1[nH]c1c(-c3ccccc3)nccc12	µM	=	13.9
CN(C)c1ccc(/C=C2\CCCCCC2=O)cc1	µM	>	100
CN(C)C(=O)c1cc2cnc(Nc3ccc(N4CCNCC4)cn3)nc2n1C1CCCC1	µM	>	100
COc1cc(COC(=O)NC(Cc2cccs2)C(=O)O)c([N+](=O)[O-])cc1OC (configuration not stated)	µM	>	100
O=C1CSC(c2cccc(Oc3ccccc3)c2)N1c1cc(Cl)ccc1Cl (configuration not stated)	µM	=	28.6
CCc1nc2cc(F)ccc2[nH]c1=O	µM	>	100
N#Cc1c(N/N=C/c2c(Cl)cccc2Cl)nc(N)nc1N1CCCC1	µM	=	21
N#Cc1c(N)nc(N2CCOCC2)c(C#N)c1-c1ccc(Cl)cc1Cl	µM	=	28.2
CCC(=C(c1ccc(OCCN(CC)CC)cc1)c1ccc(OCCN(CC)CC)cc1)c1ccc(Cl)cc1	µM	=	1.02
O=P1(C(O)c2ccccc2)N(Cc2ccccc2)[C@@H]2CCCC[C@H]2N1Cc1ccccc1 (some centres not stated)	µM	=	50.4
CC(C)c1nc(Cl)c(Cl)c(Cl)n1	µM	=	15.7
COc1ccc(-c2cc(-c3ccc(Nc4ccnc5cc(C(F)(F)F)ccc45)cc3)nc(N)c2C#N)c2ccccc12	µM	>	100
CCCCC(C)(C/C=C/[C@@H]1[C@@H](C(O)CCCCCC(=O)OC)C(=O)C[C@H]1O[Si](C)(C)C(C)(C)C)O[Si](C)(C)C (some centres not stated)	µM	>	100
O=C(O)C12C3C4C1C1C2C3C41I (configuration not stated)	µM	>	100
Cc1cc(N(CCCl)CCCl)ccc1/C=N\NC(=O)c1cccnc1	µM	=	97.6
N#Cc1c(N)n(-c2nc3ccccc3s2)c(=O)c2cc([N+](=O)[O-])ccc12	µM	=	41.2
